assaySystem: T1, serum purified human Complement Factor D (human, UniProt P00746 26-253)
T1 construct: Serum purified protein flowed over the captured antibodies; also called CFD; human CFD
T1 sequence (P00746 26-253): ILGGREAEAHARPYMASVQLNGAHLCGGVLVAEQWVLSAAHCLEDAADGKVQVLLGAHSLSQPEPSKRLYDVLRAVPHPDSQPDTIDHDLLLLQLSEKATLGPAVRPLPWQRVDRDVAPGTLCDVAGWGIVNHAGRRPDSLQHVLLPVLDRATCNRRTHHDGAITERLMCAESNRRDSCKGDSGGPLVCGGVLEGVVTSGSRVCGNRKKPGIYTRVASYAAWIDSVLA
methodNotes: SPR Biacore, antibody on protein A chip, single cycle kinetics, 37 C;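 further: antibodies captured on the protein A surface to roughly 70 RU in HBS-EP+ buffer, with rate and affinity constants fitted using BIAevaluation software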
Reported pKd is given for each of the following binders.
To interpret pKd, take it as minus log10 of a concentration measured in moles per litre.

31S34I54I59D84S / 54G101V (antibody, V domains shown, KCD119 TAF variant; full antibody captured on protein A; also called 31S34I54I59D845 / 54G101V; 3I534I54I59D84S / 54G101V) VH: EVQLVESGGGLVQPGGSLRLSCAASGYTFTSYYINWVRQAPGKGLEWIGDINPITGDTDYNADFKRRFTFSLDTSKSTAYLQMSSLRAEDTAVYYCTREGPSFAYWGQGTLVTVSS VL: DIQLTQSPSSLSASVGDRVTITCRSSQTIVHSNGDTYLEWYQQKPGKAPNLLIGKVSNRFSGVPSRFSGSGSGTDFTLTISSLQPEDFATYYCFQGSHVPVTFGQGTKVEIK : 11.21
54V59D / 32D50I101V (antibody, V domains shown, KCD119 TAF variant; full antibody captured on protein A) VH: EVQLVESGGGLVQPGGSLRLSCAASGYTFTDYYMNWVRQAPGKGLEWIGDINPVTGDTDYNADFKRRFTFSLDTSKSTAYLQMNSLRAEDTAVYYCTREGPSFAYWGQGTLVTVSS VL: DIQLTQSPSSLSASVGDRVTITCRSSQTIVHDNGDTYLEWYQQKPGKAPILLIYKVSNRFSGVPSRFSGSGSGTDFTLTISSLQPEDFATYYCFQGSHVPVTFGQGTKVEIK : 10.56

Now take the following binder into account.
# input binder: 28I31S54V59D / 101V (antibody, V domains shown, KCD119 TAF variant; full antibody captured on protein A) VH: EVQLVESGGGLVQPGGSLRLSCAASGYIFTSYYMNWVRQAPGKGLEWIGDINPVTGDTDYNADFKRRFTFSLDTSKSTAYLQMNSLRAEDTAVYYCTREGPSFAYWGQGTLVTVSS VL: DIQLTQSPSSLSASVGDRVTITCRSSQTIVHSNGDTYLEWYQQKPGKAPNLLIYKVSNRFSGVPSRFSGSGSGTDFTLTISSLQPEDFATYYCFQGSHVPVTFGQGTKVEIK ; wanted: its pKd
10.71
